Reference source for all entries: patent US7214696B2

# assay_remarks: Serum diflunisal levels in healthy volunteers (HPLC), Example 3
# Format: in vivo
# condition_notes: both sexes, human, oral, 500 mg twice a day, 500 mg bid, 12 h after the 13th dose
metric: concentration at 12 h after the 13th dose (day 8) (µM)

compound_structure=O=C(O)c1cc(-c2ccc(F)cc2F)ccc1O readout_value=422

###

# assay_remarks: Serum diflunisal levels in healthy volunteers (HPLC), Example 3
# Type: in vivo
# condition_notes: both sexes, human, oral, 125 mg twice a day, 125 mg bid, 12 h after the 13th dose
metric: concentration at 12 h after the 13th dose (day 8) (µM)

compound_structure=O=C(O)c1cc(-c2ccc(F)cc2F)ccc1O readout_value=6.9

###

# assay_remarks: Serum diflunisal levels in healthy volunteers (HPLC), Example 3
# Format: in vivo
# condition_notes: both sexes, human, oral, 250 mg twice a day, 250 mg bid, 12 h after the 13th dose
metric: concentration at 12 h after the 13th dose (day 8) (µM)

compound_structure=O=C(O)c1cc(-c2ccc(F)cc2F)ccc1O readout_value=146

###

# assay_remarks: Serum diflunisal levels in healthy volunteers (HPLC), Example 3
# Format: in vivo
# condition_notes: both sexes, human, oral, 125 mg twice a day, 125 mg bid, 4 h after the 13th dose
metric: concentration at 4 h after the 13th dose (day 8) (µM)

compound_structure=O=C(O)c1cc(-c2ccc(F)cc2F)ccc1O readout_value=20.1
